src = patent US5948814A

# testTarget: ΔF508-CFTR (Homo sapiens, UniProt P13569, DEL508-508)
# Sequence (P13569 with tags, fused parts or gaps DEL508-508): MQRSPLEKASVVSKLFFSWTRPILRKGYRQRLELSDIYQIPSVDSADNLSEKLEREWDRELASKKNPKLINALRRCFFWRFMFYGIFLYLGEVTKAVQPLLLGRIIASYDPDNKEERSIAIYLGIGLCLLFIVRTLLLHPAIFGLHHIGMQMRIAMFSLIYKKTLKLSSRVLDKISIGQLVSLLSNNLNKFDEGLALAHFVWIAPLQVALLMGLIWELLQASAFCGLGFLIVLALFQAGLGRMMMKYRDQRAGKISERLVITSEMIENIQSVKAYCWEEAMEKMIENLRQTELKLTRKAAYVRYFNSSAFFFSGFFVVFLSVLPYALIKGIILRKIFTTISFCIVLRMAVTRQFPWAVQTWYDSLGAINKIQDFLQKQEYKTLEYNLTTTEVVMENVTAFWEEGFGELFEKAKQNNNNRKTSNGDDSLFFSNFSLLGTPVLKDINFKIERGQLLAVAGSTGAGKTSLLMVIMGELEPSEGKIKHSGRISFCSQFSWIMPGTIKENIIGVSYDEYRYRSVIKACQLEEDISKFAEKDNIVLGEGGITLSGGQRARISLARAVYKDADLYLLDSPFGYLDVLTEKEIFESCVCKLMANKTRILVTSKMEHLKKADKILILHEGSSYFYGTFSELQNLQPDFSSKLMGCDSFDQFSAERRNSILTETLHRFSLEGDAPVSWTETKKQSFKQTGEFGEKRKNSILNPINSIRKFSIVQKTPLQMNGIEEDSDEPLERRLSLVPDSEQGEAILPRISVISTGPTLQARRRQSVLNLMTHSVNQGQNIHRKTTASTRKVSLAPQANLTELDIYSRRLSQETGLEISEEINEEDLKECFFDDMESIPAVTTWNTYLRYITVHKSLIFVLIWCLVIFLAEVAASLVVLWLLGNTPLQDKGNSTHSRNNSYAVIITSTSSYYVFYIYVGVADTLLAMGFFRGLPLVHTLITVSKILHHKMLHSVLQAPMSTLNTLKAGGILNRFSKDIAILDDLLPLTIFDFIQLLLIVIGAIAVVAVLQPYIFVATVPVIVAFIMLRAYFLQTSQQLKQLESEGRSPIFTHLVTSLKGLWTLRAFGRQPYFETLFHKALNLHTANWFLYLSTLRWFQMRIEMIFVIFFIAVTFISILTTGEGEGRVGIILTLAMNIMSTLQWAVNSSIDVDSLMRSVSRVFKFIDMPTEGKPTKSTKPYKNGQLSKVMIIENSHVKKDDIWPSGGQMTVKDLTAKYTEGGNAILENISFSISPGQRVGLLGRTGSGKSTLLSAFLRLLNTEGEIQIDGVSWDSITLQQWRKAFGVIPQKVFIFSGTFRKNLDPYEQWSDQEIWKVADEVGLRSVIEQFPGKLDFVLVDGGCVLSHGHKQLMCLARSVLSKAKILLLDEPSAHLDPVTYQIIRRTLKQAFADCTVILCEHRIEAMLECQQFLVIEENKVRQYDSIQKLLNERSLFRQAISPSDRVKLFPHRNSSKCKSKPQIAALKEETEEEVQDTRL
# protocolNotes: Forskolin-dependent I- efflux, NIH/3T3-ΔF508 cells
property: pEC50
Note on pEC50: it is the negative log10 of concentration, concentration in mol/L.

For reference, reported pEC50 for C=C[C@@]1(C)CC(=O)[C@]2(O)[C@@]3(C)[C@@H](O)CCC(C)(C)[C@@H]3[C@H](O)[C@H](OC(C)=O)[C@@]2(C)O1 stands at 6.17

---

# testTarget: wt-CFTR (Homo sapiens, UniProt P13569)
# Sequence (P13569 whole entry): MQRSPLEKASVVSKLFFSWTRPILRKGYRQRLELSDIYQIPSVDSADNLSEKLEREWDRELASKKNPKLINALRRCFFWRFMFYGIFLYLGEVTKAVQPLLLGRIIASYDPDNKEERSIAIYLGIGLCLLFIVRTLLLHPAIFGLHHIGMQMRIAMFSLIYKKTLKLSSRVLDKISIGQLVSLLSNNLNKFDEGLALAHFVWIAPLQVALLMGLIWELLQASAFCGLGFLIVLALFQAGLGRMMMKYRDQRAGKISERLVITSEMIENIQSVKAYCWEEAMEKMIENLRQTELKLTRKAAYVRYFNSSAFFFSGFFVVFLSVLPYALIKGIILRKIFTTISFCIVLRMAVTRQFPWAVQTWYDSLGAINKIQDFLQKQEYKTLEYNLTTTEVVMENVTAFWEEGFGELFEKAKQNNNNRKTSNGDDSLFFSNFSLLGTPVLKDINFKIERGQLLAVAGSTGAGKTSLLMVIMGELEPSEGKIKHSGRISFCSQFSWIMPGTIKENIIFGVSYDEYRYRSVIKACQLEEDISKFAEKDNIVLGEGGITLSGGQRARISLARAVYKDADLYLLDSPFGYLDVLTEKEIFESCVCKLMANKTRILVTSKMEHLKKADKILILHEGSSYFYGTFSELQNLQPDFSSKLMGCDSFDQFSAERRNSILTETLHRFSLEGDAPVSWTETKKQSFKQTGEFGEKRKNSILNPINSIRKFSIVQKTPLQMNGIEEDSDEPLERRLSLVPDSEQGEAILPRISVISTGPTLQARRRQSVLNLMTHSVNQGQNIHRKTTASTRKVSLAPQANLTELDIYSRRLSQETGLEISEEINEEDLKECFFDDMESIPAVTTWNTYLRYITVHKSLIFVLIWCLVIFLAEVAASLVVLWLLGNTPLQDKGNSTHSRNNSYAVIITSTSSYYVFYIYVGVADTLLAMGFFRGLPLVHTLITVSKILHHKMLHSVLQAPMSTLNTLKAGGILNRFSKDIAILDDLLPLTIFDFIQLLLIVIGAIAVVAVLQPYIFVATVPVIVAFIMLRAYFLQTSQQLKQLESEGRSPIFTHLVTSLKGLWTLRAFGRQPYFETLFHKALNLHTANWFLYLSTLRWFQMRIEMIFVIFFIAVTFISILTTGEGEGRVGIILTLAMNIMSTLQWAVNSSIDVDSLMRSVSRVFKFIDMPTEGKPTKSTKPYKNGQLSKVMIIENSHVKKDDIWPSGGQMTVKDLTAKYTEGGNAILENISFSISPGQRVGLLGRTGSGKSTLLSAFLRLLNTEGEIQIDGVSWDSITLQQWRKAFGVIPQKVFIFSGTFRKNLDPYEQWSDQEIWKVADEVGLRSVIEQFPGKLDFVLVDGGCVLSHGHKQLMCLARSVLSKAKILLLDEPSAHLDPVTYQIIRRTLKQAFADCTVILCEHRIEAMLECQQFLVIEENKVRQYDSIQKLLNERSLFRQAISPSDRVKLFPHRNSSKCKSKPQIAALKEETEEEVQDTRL
# protocolNotes: cell-based
# Format: cell-based
# Set-up: expressed in transfected cells
# conditionDescription: read-out: K1/2 of forskolin for I- efflux in presence of genistein; with 50 μM genistein; NIH/3T3-CFTR cells
# Protocol: FIG. 1 is a graph representing the dose-responses relationship for forskolin-dependent I^- efflux. […] I^- efflux: I^- efflux was measured as described previously [Reenstra et al., 1996]. […] Extracellular ^125 I^- was removed by washing four times with efflux buffer, and the rate of loss of intracellular ^125 I^- was determined by replacing the bathing solution with 37° C. efflux buffer every 60 seconds for 12 minutes. […]
property: EC50 (nM)
Give a bare numeral; the unit nM is implied.

Lookup result for C=C[C@@]1(C)CC(=O)[C@]2(O)[C@@]3(C)[C@@H](O)CCC(C)(C)[C@@H]3[C@H](O)[C@H](OC(C)=O)[C@@]2(C)O1 ; measured EC50: 50
